// reported gcPBM binding intensity (ln) for each item listed
# System: PfAP2-I AP2 domain 3 (GST-tagged)
# measurement.description: gcPBM binding intensity (ln(normalized median fluorescence intensity)); higher = stronger DNA binding
In all, about 25,000 sequences were measured (“ln(normalized median fluorescence intensity)”: median about 7.9, highest 2% from about 11 on). This is one part of a sample in which the highest values are shown more often than they occur.
Provide a numeric answer; units are not to be included.

Consider the worked cases shown below.
AAAAAAAAAATTTTCGTGCACATAAGAAAATTTAAA [GTGCAC_site9788]; 10.3
AATATTCAATATAAAGTGCATTATTGTGCCCCTAAT; 11.3
TAATTTTCAATAATTTGTACATAATTTTTATAAATT [XGTACX_site8133]; 7.49
TTAAAAAATAACAAGGTGCAAATAGGTTTATAAAAT; 10.8
AGTAATTATTTTAGAGTGCATAGTTTTTTAATAAAT; 9.54

Prompt: State its gcPBM binding intensity (ln) on PfAP2-I AP2 domain 3 (GST-tagged): TTACTTAATAGACACACACACAAAAAAAAAAAAAAA [CACACA_site6572]
Response: 8.12

Prompt: Return gcPBM binding intensity (ln) measured with PfAP2-I AP2 domain 3 (GST-tagged) given this sequence: TACACCCATAGACACACACACACGCATAAAAAAAAA [CACACA_site8428]
Response: 8.36

Prompt: Item: TAAATTAAAAAAAAAAACAAAAAAAAAGCAACAAAA [CACACA_negctrl_site1318] Test system: PfAP2-I AP2 domain 3 (GST-tagged) Read-out: gcPBM binding intensity (ln) Value: ?
Response: 7.67

###

# Test system: PfAP2-I AP2 domain 3 (GST-tagged)
# measurement.description: gcPBM binding intensity (ln(normalized median fluorescence intensity)); higher = stronger DNA binding
In all, about 25,000 sequences were measured (“ln(normalized median fluorescence intensity)”: median about 7.9, highest 2% from about 11 on). The list comes from a sample in which the highest values are over-represented; it also holds close analogues and randomly drawn sequences.
measurement.type: gcPBM binding intensity (ln)
# respond with the number and nothing more

// known answers, use as guide
TTTTAGTTAATTCATGCATGTAAAGTTTTATTTATA [TGCATGCA_site252]; 7.72
ATTAAATTAAAATAATGTACTTAATACTTTTGCTTA [XGTACX_site8404]; 7.39
AATAAATATAGGAATACACACAATATAAATGTATTG [CACACA_site3366]; 7.5
TATATATATAAATGAATGCACTTTAGAAAAAAGTAC; 10.2
ATTTAATTTTCATGATGTACTATAGTTTAATGCACA [XGTACX_site1624]; 11.6
ATATATATATATATGGTGCATGAAAATTTACTTTGA; 10.1
AATGAATATAGTACTGAATGTAATTTAAGGTTTTCC [CACACA_negctrl_site1548]; 7.53
TACAATCTAAAATACACACGCACACCGAAAAAAAAA [CACACA_site3520]; 8.13
AAAATTAAAAATAACACACACATATTTATATTTATA [CACACA_site7329]; 7.59
AAAAAAAAAAAAAGCACACATATAAATATGAATAAA [CACACA_site1393]; 8.39

Now look at this entry.
Prompt: Notebook: pull reported gcPBM binding intensity (ln) for PfAP2-I AP2 domain 3 (GST-tagged), entry CAGCTCTTAAAAATTACACACATATACACATATATA [CACACA_site9073]
Response: 7.5

###

Listed below: gcPBM binding intensity (ln) values for each entry.
# System: PfAP2-I AP2 domain 3 (GST-tagged)
# measurement.description: gcPBM binding intensity (ln(normalized median fluorescence intensity)); higher = stronger DNA binding
Over roughly 25,000 sequences, “ln(normalized median fluorescence intensity)” has its median near 7.9; the highest 2% begin near 11. The sample holds the highest values, similar sequences and a random draw of the others, so the mix is not that of the screen.
# print the numeric value only

AATATTTTAATGCACACACACAAAAAAAAAAAAAAA [CACACA_site7374]; 11.5
ACTTTTATTCGCTTACGTACATATATTATATATTAT [XGTACX_site4459]; 8.75
TTTAAATTTTAATATGCACACAAAATGTTATATTAA [CACACA_site8015]; 9.06
AATTTAATATAATGCACACATAAAAAAAAAAAATTC [CACACA_site1504]; 11
ATACATATATGTGTGTGTACATAAATGTATATATTT [XGTACX_site6242]; 7.93
TAAAAATTCAATTGCACACGCACATATTTTAATAAG [CACACA_site2014]; 8.8
ATTTCGTAATTTATATCACACACATATATATATAAT [CACACA_site9021]; 8.06
TAAATTTTAATATGCACACAAAATGTTATATTAAAA [CACACA_site4366]; 9.13

Query sequence follows.
Prompt: Report gcPBM binding intensity (ln) for ATATTTTATTATATAGGTACACATAATTTCATGTAA [XGTACX_site415] please.
Response: 7.83

###

Reported gcPBM binding intensity (ln) values for the following sequences.
# Tested on: PfAP2-I AP2 domain 3 (GST-tagged)
# measurement.description: gcPBM binding intensity (ln(normalized median fluorescence intensity)); higher = stronger DNA binding
Over roughly 25,000 sequences, “ln(normalized median fluorescence intensity)” has its median near 7.9; the highest 2% begin near 11. The sample as a whole holds a higher share of the highest values than the screen did.
The answer should be written as a number, with no unit following it.

CATATTATTATTTTGGTGCATACTTATATATATTTT; 9.53
TTTTTTTTGTATTAATGTACATATAACTTTTTTTTT [XGTACX_site7903]; 7.7
AATTATATAAGCCACGCATGTGTGCATAAAAATACA [TGCATGCA_site114]; 11.1
TCCTTTATTTTTAAAGTGCATATACATGTACATTAT [GTGCAC_site9445]; 9.68
TTTTTATTTTTTGTCTGTACATATATAAATTTATTA [XGTACX_site1525]; 7.88

Prompt: Dear colleague, I am looking for the recorded gcPBM binding intensity (ln) of the following sequence: GAATGTAAATATTAAAGTACACAGAATATATCTTCA [XGTACX_site8149]
Response: 7.79

Prompt: Sample AAAAATAAAATATATACATGCATATACATATTATAT [TGCATGCA_site668] — what was its gcPBM binding intensity (ln)?
Response: 7.87

Prompt: Entry TACTTATTTGATTGGGTGCATATATATAGTATGTAT [GTGCAC_site9845] has what gcPBM binding intensity (ln)?
Response: 11

Prompt: For AAATAAAATTATAATACATGCATACATACATATATA [TGCATGCA_site69] , what is its reported gcPBM binding intensity (ln)?
Response: 7.9

Prompt: Reported gcPBM binding intensity (ln), sequence TATTTTTATTTATAACGTACGAAAAATGTATATAAT [XGTACX_site703] : ____
Response: 7.96

###

# System: PfAP2-I AP2 domain 3 (GST-tagged)
# measurement.description: gcPBM binding intensity (ln(normalized median fluorescence intensity)); higher = stronger DNA binding
Whole data set: some 25,000 sequences, median “ln(normalized median fluorescence intensity)” near 7.9, cut for the highest 2% near 11. What follows is part of a selection rich in the highest values, with near analogues and random picks from the rest.
Property: gcPBM binding intensity (ln); scope: individual sequences

Prompt: Entry ATATGTATTTATATATGTTTGATTTTTTTTTTTTTT [TGCATGCA_negctrl_site506] : reported gcPBM binding intensity (ln) = ?
Response: 7.71

###

# System: PfAP2-I AP2 domain 3 (GST-tagged)
# measurement.description: gcPBM binding intensity (ln(normalized median fluorescence intensity)); higher = stronger DNA binding
Whole data set: some 25,000 sequences, median “ln(normalized median fluorescence intensity)” near 7.9, cut for the highest 2% near 11. The full list was thinned out, with the highest values kept by preference.
measurement.type: gcPBM binding intensity (ln)
Reply briefly: the number, and no unit.

AAAAAAAAAAAAAAAACACACAAACAAATGAATAAA [CACACA_site5769]; 8.76

Prompt: Need gcPBM binding intensity (ln) of AAGTATTATTTTTATGCATGTGAAGTGCAAAATAAA [TGCATGCA_site198] , thanks.
Response: 11

Prompt: Fill blank: measured gcPBM binding intensity (ln) of the sequence TTTTATGCATGTGAAGTGCAAAATAAAAAATAAAAT [GTGCAC_site9612] is ____.
Response: 10.8

Prompt: What value of gcPBM binding intensity (ln) has been recorded for this entry: `TAATTAATTTATTAGTTGCACTGTACCATTAGAGTA`
Response: 9

Prompt: What value of measured gcPBM binding intensity (ln) is listed for `TGATATAAAATTAAAGTGCAAAAAAAAAATAAAAAA` ?
Response: 10.1

Prompt: What measured gcPBM binding intensity (ln) goes with `AAAAAAAAGTTGTAAGTGCATGTATATAATAATATT` ?
Response: 8.42

Prompt: Which gcPBM binding intensity (ln) reading was recorded for the sequence TTATAAAATATTTATGCATGTGAAGAATATTATAAA [TGCATGCA_site1047] ?
Response: 8.42

Prompt: What value of measured gcPBM binding intensity (ln) is listed for `ATATATTTTTATGTAGTGCATTTAAATAATAAATGC` ?
Response: 10.7

Prompt: Which gcPBM binding intensity (ln) value belongs to TATAATTATATTTGGAGTACAAATTTTTTTTTTTTT [XGTACX_site7494] ?
Response: 7.76

Prompt: For the sequence TTGCATTAATTTATGTGTACATATAAATTTTTATTT [XGTACX_site3060] , what gcPBM binding intensity (ln) is on record?
Response: 8.21

From: the supplement of paper PMC11417369
